assay: AUClast in Sprague-Dawley rat at 50 mg/kg, po measured upto 24 hrs by LC/MS-MS analysis; assay type: ADME, organism-based; settings: in vivo
measured-endpoint: AUC(0-t) at 24 h (ng·h/mL)
Numbers only, in ng·h/mL.

*Q* Field request: AUC(0-t) at 24 h | item: CC1(C)CCOC(=O)[C@@H]2C[C@@H](C[C@@H](C#N)NC(=O)[C@@H]3[C@@H]4[C@H](CN3C(=O)[C@H]1NC(=O)C(F)(F)F)C4(C)C)C(=O)N2
*A* 72.9

###

Exercise: for every item that follows, state its recorded half-life.
assay: Metabolic stability in rat liver microsomes assessed as half life measured upto 60 mins in presence of NADPH by LC/MS-MS analysis; format: ADME, Microsome

Would you please look over these solved cases?
smiles_data=CC1(C)CCOC(=O)[C@@H]2C[C@@H](C[C@@H](C#N)NC(=O)[C@@H]3[C@@H]4[C@H](CN3C(=O)[C@H]1NC(=O)C(F)(F)F)C4(C)C)C(=O)N2 data_value="> 3 h"
smiles_data=CC(C)(C)[C@H](NC(=O)C(F)(F)F)C(=O)N1C[C@H]2[C@@H]([C@H]1C(=O)N[C@H](C#N)C[C@@H]1CCNC1=O)C2(C)C data_value="2.12 h"
smiles_data=COC(=O)N[C@@H]1C(=O)N2C[C@H]3[C@@H]([C@H]2C(=O)N[C@H](C#N)C[C@@H]2C[C@H](NC2=O)C(=O)OCC1(C)C)C3(C)C data_value="1.27 h"
smiles_data=CC1(C)CNC(=O)[C@@H]2C[C@@H](C[C@@H](C#N)NC(=O)[C@@H]3[C@@H]4[C@H](CN3C(=O)[C@H]1NC(=O)OCc1ccccc1)C4(C)C)C(=O)N2 data_value="0.0717 h"

Now turn to the next compound.
*Q* Param item = CC1(C)COC(=O)[C@@H]2C[C@@H](C[C@@H](C#N)NC(=O)[C@@H]3[C@@H]4[C@H](CN3C(=O)[C@H]1NC(=O)C(F)(F)C1CC1)C4(C)C)C(=O)N2 ; retrieve measured half-life.
*A* 0.58 h
